target: P-gp (MDR1) (Homo sapiens, UniProt P08183); experiment: Bi-directional transport across MDCKII-MDR1 cell monolayers; format: in vitro ADME; conditions: dog, MDCK-MDR1
Sequence (P08183 whole entry): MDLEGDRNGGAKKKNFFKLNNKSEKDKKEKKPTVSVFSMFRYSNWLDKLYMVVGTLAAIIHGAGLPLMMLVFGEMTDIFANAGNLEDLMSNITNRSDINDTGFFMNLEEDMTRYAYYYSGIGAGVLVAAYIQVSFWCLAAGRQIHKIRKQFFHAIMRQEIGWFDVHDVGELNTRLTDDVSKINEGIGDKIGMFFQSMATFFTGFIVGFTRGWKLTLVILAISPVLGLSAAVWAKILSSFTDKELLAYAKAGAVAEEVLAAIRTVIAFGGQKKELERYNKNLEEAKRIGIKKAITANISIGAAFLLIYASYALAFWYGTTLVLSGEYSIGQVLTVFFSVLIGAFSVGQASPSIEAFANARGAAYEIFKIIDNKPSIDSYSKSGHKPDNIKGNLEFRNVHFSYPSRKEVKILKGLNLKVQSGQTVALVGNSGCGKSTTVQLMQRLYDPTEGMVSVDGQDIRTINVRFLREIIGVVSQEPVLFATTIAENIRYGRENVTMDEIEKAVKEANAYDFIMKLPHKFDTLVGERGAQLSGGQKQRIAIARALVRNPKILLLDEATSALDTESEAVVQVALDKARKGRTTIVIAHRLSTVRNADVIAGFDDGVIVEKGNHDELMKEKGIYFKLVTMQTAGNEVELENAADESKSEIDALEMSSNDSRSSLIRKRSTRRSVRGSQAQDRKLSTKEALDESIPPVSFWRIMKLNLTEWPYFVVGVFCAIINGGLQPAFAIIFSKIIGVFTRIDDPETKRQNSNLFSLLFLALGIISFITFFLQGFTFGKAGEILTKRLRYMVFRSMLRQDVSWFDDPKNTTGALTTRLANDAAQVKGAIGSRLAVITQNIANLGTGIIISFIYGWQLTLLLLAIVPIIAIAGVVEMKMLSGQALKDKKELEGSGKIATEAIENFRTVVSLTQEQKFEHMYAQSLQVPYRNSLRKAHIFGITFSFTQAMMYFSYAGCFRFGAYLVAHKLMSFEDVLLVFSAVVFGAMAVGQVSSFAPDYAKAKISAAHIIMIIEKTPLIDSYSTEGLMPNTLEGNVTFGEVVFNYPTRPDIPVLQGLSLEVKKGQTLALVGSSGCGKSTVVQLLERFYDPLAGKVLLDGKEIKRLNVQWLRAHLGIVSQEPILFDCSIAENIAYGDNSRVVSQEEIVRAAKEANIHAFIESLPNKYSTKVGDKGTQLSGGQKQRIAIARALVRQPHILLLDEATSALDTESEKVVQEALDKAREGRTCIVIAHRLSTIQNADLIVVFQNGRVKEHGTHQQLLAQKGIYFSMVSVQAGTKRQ
value-kind: Papp A→B at 240 min, 5 μM (×10⁻⁶ cm/s)
Write it as a number; the unit ×10⁻⁶ cm/s goes unstated.

Query :: Query: Papp A→B at 240 min, 5 μM; subject: COc1cc2c(Nc3ccc(Br)cc3F)ncnc2cc1OCC1CCN(C)CC1 [Vandetanib]
Result :: 5.73

###

assay: Bi-directional transport across MDCKII-WT cell monolayers; type: in vitro ADME, canine; conditions: dog, MDCK
value-kind: efflux ratio at 240 min, 5 μM
Give your answer as a number; write no unit.

Query :: Query: efflux ratio at 240 min, 5 μM; subject: "COc1cc2c(Nc3ccc(Br)cc3F)ncnc2cc1OCC1CCN(C)CC1"
Result :: 1.06
